Just for reference, the RNAGym collection of RNA variant scans (doi:10.1021/acssynbio.7b00057) is where these values come from.

Listing of recorded aptazyme ON/OFF ratio by entry.
B1: Pistol ribozyme (parent)
chain: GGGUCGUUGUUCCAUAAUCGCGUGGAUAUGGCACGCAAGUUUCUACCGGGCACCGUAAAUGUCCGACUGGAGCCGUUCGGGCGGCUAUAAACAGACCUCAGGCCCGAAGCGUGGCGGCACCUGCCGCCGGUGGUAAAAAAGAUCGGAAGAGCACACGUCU

variants of: B1; assay: aptazyme ON/OFF ratio, guanine; higher = stronger switching; co-transcriptional cleavage with and without guanine
reportedMetric: aptazyme ON/OFF ratio

{"columns": ["variantNotation", "observedValue"],
 "data": [
  ["U7G U8C G9A U10A U11G C12A", 1.06],
  ["U7C U8G U10G U11A C13U", 1.28],
  ["U7A G9U U10A U11A C12G C13U", 1.19],
  ["U7G U8A G9A U10G U11C C12G C13U", 1.11],
  ["U7A U8C C12G C13G", 1.19],
  ["U8G G9U U11C C12U C13A", 1.06],
  ["U8A G9U U10A U11G", 1.42],
  ["U7C U8G U10G U11G C13U", 1.39],
  ["U8C G9A U10A C12G C13A", 1.14],
  ["U7G U8C G9A U11C C12U C13G", 1.12],
  ["U7A U8C G9C U10C U11G C12A", 1.13],
  ["U7C U10G U11G C12U C13G", 1.1],
  ["U7A U8A G9A U10C C12U C13A", 1.01],
  ["U7G U8C G9C U10G U11C C12A C13A", 1.34],
  ["U7A U8G G9C U10C C12A C13U", 1.12]
]}
